experiment: qHTS Assay for Identification of Small Molecule Agonists for Hypoxia Response Element Signaling Pathway (AID 914); details: ME-180 (cervical carcinoma) HRE-bla reporter, beta-lactamase ratio, CoCl2, 17 h; hits give high values; further: % of control where 0% means no effect
Records with an inconclusive call do not appear. Activity calls are given as the source filed them. The call rests on the fitted dose curve; in most records, active means well fitted activation curve with a large enough effect in the signal ratio, with a control signal flat (not every such curve was filed as active); inconclusive means small, poorly fitted or top-dose-only effect, or effect the other way, or a change in a side signal; inactive means flat fitted curve, though single readings scatter; the % refers to the signal ratio.
reportedMetric: activation

Solved entries:
molecule | reportedMetric | reading
COc1cc(C2C3C(=O)N(c4ccc(F)cc4)C(=O)C3ON2c2ccccc2)ccc1O (stereo unspecified) | activation | -4.56% (inactive)
CC1(C)Cc2nc(NCCN3CCOCC3)c(C#N)cc2CO1 | activation | 3.3% (inactive)
COc1ccc(CCn2c(=N)c(C#N)cc3c(=O)n4ccccc4nc32)cc1 | activation | 22.3% (inactive)
CCCCOc1ccc(CSC(CC(=O)O)C(=O)O)cc1 (stereo unspecified) | activation | 26.9% (inactive)
O=C(O)CC(NC(=O)COc1ccc(Cl)cc1Cl)C(=O)O (stereo unspecified) | activation | 3.63% (inactive)

Query molecule follows.
State the recorded activation for this entry: CCOc1ccc(NC(=O)CSC2=C(C#N)C(c3ccc4c(c3)OCO4)CC(=O)N2)cc1 (stereo unspecified)
-0.0576% (inactive)

###

biological target: Cytochrome P450 1A2 (Homo sapiens); assay: p450-cyp1a2 (AID 410); conditions: recombinant CYP1A2, luciferin-ME demethylation, luminescence; series mostly up to 57 µM
Records with an inconclusive call do not appear. Activity calls are given as the source filed them. The call rests on the fitted dose curve.
Output constraint: value belongs to active, inactive

Before answering, review these 5 worked examples.
compound | target | labelClass
C[C@@H](C(=O)Nc1ccc2ccccc2c1)[C@@H]1C[C@@]1(C)[C@@H](NC(=O)Oc1ccc(F)cc1)c1ccccc1 | Cytochrome P450 1A2 (Homo sapiens) | inactive
CCC/C=C(\CCC)C(NS(=O)(=O)c1ccc(C(F)(F)F)cc1)c1ccc(-c2ccccc2)cc1 (stereo unspecified) | Cytochrome P450 1A2 (Homo sapiens) | inactive
CC1(C)CCC(C)(C)c2cc(C(=O)Nc3ccc(C(=O)O)cc3)ccc21 | Cytochrome P450 1A2 (Homo sapiens) | active
NCCC[C@@H](CC(=O)N[C@@H]1CCCC[C@H]1C(=O)N[C@H](CC(=O)N[C@@H](CCC(=O)O)CC(=O)O)Cc1c[nH]c2ccccc12)NC(=O)C[C@H](Cc1ccccc1)NC(=O)[C@@H]1CNCC[C@H]1N | Cytochrome P450 1A2 (Homo sapiens) | active
NCCC[C@@H](CC(=O)N[C@@H]1CCNC[C@H]1C(=O)N[C@H](CC(=O)N[C@@H](CCC(=O)O)CC(=O)O)Cc1c[nH]c2ccccc12)NC(=O)C[C@H](Cc1ccccc1)NC(=O)[C@@H]1CNCC[C@H]1N | Cytochrome P450 1A2 (Homo sapiens) | active

Next compound, please.
Outcome logged for CC(C)C[C@@H](CC(=O)N[C@@H](CCC(=O)O)CC(=O)O)NC(=O)[C@@H]1CCCC[C@H]1NC(=O)C[C@H](CCCN)NC(=O)C[C@H](Cc1c[nH]c2ccccc12)NC(=O)[C@@H]1CNCC[C@H]1N in this assay:
inactive

###

tested on: CP191; test: qHTS profiling for inhibitors of Plasmodium falciparum proliferation (AID 504749); further: nearly all actives have a fitted effect of over 60% in size; conditions: P. falciparum in erythrocytes, SYBR Green DNA, 72 h; series mostly up to 28.7 µM
Results filed as inconclusive are left out. The source made the active and inactive calls. The call rests on the fitted dose curve; in most records, active means well fitted inhibition curve with a large enough effect; inconclusive means small, poorly fitted or top-dose-only effect; inactive means flat fitted curve, though single readings scatter.
The reply should be one of these categories: Y (active), N (inactive)

// below: answered compounds
compound | labelClass
C=C(CC[C@@H](C)[C@H]1CCC2[C@]1(C)CC[C@]13C[C@@]14CCC(OC(=O)/C=C/c1ccc(O)c(OC)c1)C(C)(C)[C@@H]4CC[C@@]23C)C(C)C (stereo partly drawn) | N
NC(=O)C1CC2(NC(=O)NC2=O)c2cc(F)ccc2O1 (stereo not drawn) | N
CO/N=C(/C(=O)N[C@@H]1C(=O)N2C(C(=O)O)=C(CSc3nc(C)c(CC(=O)O)s3)CS[C@H]12)c1csc(N)n1 | N
CC1(C)C2CC[C@]1(C)[C@@H](O)C2 | N
C/C(=C(/CCO)SS/C(CCO)=C(\C)N(C=O)Cc1cnc(C)nc1N)N(C=O)Cc1cnc(C)nc1N | N
COc1cc2c(cc1O)CCN[C@@]21CS[C@H]2c3c(OC(C)=O)c(C)c4c(c3C(COC1=O)N1C2C2c3c(cc(C)c(OC)c3O)CC([C@@H]1O)N2C)OCO4 (stereo partly drawn) | Y
OCC1O[C@H](Oc2ccc(O)cc2)C(O)C(O)C1O (stereo partly drawn) | N

# outcome recorded in this test, key = COc1ccc2cc1Oc1cc3c(cc1OC)CC[N+](C)(C)C3Cc1ccc(cc1)Oc1c(OC)c(OC)cc3c1C(C2)[N+](C)(C)CC3 (stereo not drawn)
N

###

tested on: CP237; assay: qHTS profiling for inhibitors of Plasmodium falciparum proliferation (AID 504749); further: nearly all actives have a fitted effect of over 60% in size; settings: P. falciparum in erythrocytes, SYBR Green DNA, 72 h; series mostly up to 28.7 µM
Records with an inconclusive call do not appear. The source made the active and inactive calls. Calls come from the whole dose curve; as a rule, active = well fitted inhibition curve with a large enough effect; inconclusive = small, poorly fitted or top-dose-only effect; inactive = flat fitted curve, though single readings scatter.
In this exercise, the only acceptable responses are 1.0 = active, 0.0 = inactive

molecule | target | labelClass
C=CC1CN2CCC1CC2[C@@H](O)c1ccnc2ccc(OC)cc12 (some centres undefined) | CP237 | 1.0
C=C1CC2C3C=C(C)C4=CC(=O)CCC4(C)C3CCC2(C)[C@@]1(OC(C)=O)C(C)=O (some centres undefined) | CP237 | 0.0
CC1(C)CC1C(=O)N/C(=C/CCCCSCC(N)C(=O)O)C(=O)O (centres undefined) | CP237 | 0.0
C#C[C@@]1(O)CC[C@@H]2[C@H]3CCC4=C/C(=N\O)CC[C@H]4[C@@H]3CC[C@]21CC | CP237 | 0.0
C[C@@H]1CC2C3CCC4=CC(=O)C=C[C@]4(C)[C@@]3(F)[C@@H](O)C[C@]2(C)[C@@]1(O)C(=O)COC(=O)c1cccc(S(=O)(=O)O)c1 (some centres undefined) | CP237 | 0.0

Returns: the outcome recorded for C[C@@H](O)[C@@H]1C(=O)N2C(C(=O)O)=C([C@H]3CCCO3)S[C@H]12 in this assay.
0.0

Queued: C=C1/C(=C\C=C2/CCC[C@]3(C)[C@@H]([C@H](C)/C=C/[C@@H](O)C4CC4)CC[C@@H]23)C[C@@H](O)C[C@@H]1O
0.0

Another molecule to check: C/C1=C2/[N-]C(C(CC(N)=O)[C@@]2(C)CCC(=O)NCC(C)OP(=O)([O-])O[C@H]2[C@@H](O)[C@@H](n3cnc4cc(C)c(C)cc43)O[C@@H]2CO)[C@]2(C)N=C(/C(C)=C3N=C(/C=C4N=C1C(CCC(N)=O)C\4(C)C)[C@@H](CCC(N)=O)[C@]\3(C)CC(N)=O)[C@@H](CCC(N)=O)[C@]2(C)CC(N)=O.CC(=O)O.[Co] (some centres undefined)
0.0

# iterate: C=C[C@H]1CN2CCC1C[C@H]2[C@H](O)c1ccnc2ccc(OC)cc12 (some centres undefined)
1.0

Continue with CC(=O)NC[C@@H]1CN(c2ccc(N3CCOCC3)c(F)c2)C(=O)O1
0.0

Continue with OCC1O[C@H](O[C@H]2C(O)C(O)C(O)O[C@@H]2CO)C(O)C(O)C1O (some centres undefined)
0.0

###

Listed here: items and their measured max response.
test: qHTS assay for cell viability of HEK293 cells (AID 743288); conditions: ATP luminescence (CellTiter-Glo), 18 h; hits give low values; further: on the % scale 0 is the no-effect control and ±100 the full control effect; nearly all actives have a fitted effect of over 50% in size
Results filed as inconclusive are left out.
Supply the numeric figure in %, leaving out any unit text.

Recorded max response, per entry:
compound | unitsText | max response
c1ccc2c(c1)ccc1cc3c(ccc4ccccc43)cc12 | % | -4.73
Cc1cc(C(C)(C)CC(C)(C)C)ccc1OCCOCC[N+](C)(C)Cc1ccccc1 | % | -29.5
c1cc(OCC2CO2)cc(OCC2CO2)c1 (stereo unspecified) | % | -14.2
O=[N+]([O-])c1cc([N+](=O)[O-])c2ccc(S(=O)(=O)O)cc2c1O | % | -2.67
C=C(C)c1ccccc1 | % | 1.22

Sample CO[C@H]1/C=C/O[C@@]2(C)Oc3c(C)c(O)c4c(O)c(c5c(c4c3C2=O)NC2(CCN(CC(C)C)CC2)N=5)=NC(=O)/C(C)=C\C=C\[C@H](C)[C@H](O)[C@@H](C)[C@@H](O)[C@@H](C)[C@H](OC(C)=O)[C@@H]1C — what was its max response?
-15.3

Record: O=Cc1ccc(Cl)c(Cl)c1
-7.75

What do you have for O=C1OC2(c3cc(Br)c(O)c(Br)c3Oc3c2cc(Br)c(O)c3Br)c2c(Cl)c(Cl)c(Cl)c(Cl)c21 ?
-29.6

Next entry: CN(C)c1ccc(C2(c3ccc(N(C)C)cc3)OC(=O)c3cc(N(C)C)ccc32)cc1
-3.92

What do you have for Cc1cc(Nc2ccc(O)cc2)ccc1N ?
-27

Check O=c1oc2cc(O)ccc2c2oc3cc(O)ccc3c12 too.
-9.05

Data origin: PubChem BioAssay (NCATS)
